Source listed as the supplement of paper PMC8728848.

Assayed System: Man(a1-3)[Man(a1-6)]Man
Experiment Notes: glycan array binding signal (z-score within array); higher = stronger binding
Assay Conditions: glycan notation: IUPAC condensed, linker removed
The sample as a whole holds a higher share of the strongest signals than the screen did.
Endpoint Name: glycan array binding signal (z-score)
Please give only the number in your answer, with no unit.

Binder: CPA (Cicer arietinum) (protein) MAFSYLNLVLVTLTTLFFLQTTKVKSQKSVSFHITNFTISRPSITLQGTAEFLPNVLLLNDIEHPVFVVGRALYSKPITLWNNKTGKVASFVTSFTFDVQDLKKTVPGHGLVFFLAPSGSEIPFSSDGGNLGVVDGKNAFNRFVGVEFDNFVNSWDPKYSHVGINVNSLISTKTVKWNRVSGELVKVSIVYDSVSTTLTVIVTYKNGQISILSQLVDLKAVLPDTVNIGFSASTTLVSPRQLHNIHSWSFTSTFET
Reported: -0.635

Binder: DCAL1 (Homo sapiens), Q8IZS7 (protein) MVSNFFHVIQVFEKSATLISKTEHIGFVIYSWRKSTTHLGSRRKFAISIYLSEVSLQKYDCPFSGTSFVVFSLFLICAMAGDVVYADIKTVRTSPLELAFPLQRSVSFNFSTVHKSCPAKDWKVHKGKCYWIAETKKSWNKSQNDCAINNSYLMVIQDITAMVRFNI
Reported: -0.223

Let us move to another entry and its glycan array binding signal (z-score).
Which value of glycan array binding signal (z-score) has been reported for MUB70 (Lactobacillus reuteri) (protein) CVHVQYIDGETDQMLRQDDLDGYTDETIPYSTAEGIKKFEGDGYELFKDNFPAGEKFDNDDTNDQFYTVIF in the records?
-0.052
